// data source = the supplement of paper PMC9112550

# System: Escherichia coli TOP10
# procedureSummary: shrunken log2 fold change of peptide-encoding DNA abundance (4.5 h post-induction vs induction); higher = less antimicrobial activity (less host growth inhibition)
# runParameters: time post-induction: 4.5 h; library: site-saturation at positions 5, 18, 19, 20
What shrunken log2 fold change was measured for each of the following?
One number for each entry.

Recorded results for 6 sequences are shown here.
| inputSequence | assayEndpoint | measurement |
| --- | --- | --- |
| RRIRRRPPRLPRPRPRPKDIPRP | shrunken log2 fold change | -0.193 |
| RRIRWRPPRLPRPRPRPYFPPRP | shrunken log2 fold change | -0.282 |
| RRIRARPPRLPRPRPRPHQMPRP | shrunken log2 fold change | -0.066 |
| RRIRWRPPRLPRPRPRPWQSPRP | shrunken log2 fold change | 0.0143 |
| RRIRDRPPRLPRPRPRPVVTPRP | shrunken log2 fold change | 0.689 |
| RRIRARPPRLPRPRPRPSAAPRP | shrunken log2 fold change | 0.848 |

Q) I would be grateful if you could share the reported shrunken log2 fold change for `RRIRQRPPRLPRPRPRPSMLPRP` .
A) -0.522

* * *

# System: Escherichia coli TOP10
# procedureSummary: shrunken log2 fold change of peptide-encoding DNA abundance (4.5 h post-induction vs induction); higher = less antimicrobial activity (less host growth inhibition)
# runParameters: time post-induction: 4.5 h; library: site-saturation at positions 5, 18, 19, 20
assayEndpoint: shrunken log2 fold change

| inputSequence | targetDesc | measurement |
| --- | --- | --- |
| RRIRARPPRLPRPRPRPHHHPRP | Escherichia coli TOP10 | -0.469 |

// input: 3 sequences below; output: shrunken log2 fold change for each
1. RRIRCRPPRLPRPRPRPTMLPRP
2. RRIRHRPPRLPRPRPRPTAIPRP
3. RRIRWRPPRLPRPRPRPRGNPRP

A)
-0.096
-0.183
0.423

* * *

# Test system: Escherichia coli TOP10
# procedureSummary: shrunken log2 fold change of peptide-encoding DNA abundance (4.5 h post-induction vs induction); higher = less antimicrobial activity (less host growth inhibition)
# runParameters: time post-induction: 4.5 h; library: site-saturation at positions 5, 18, 19, 20
Class met: shrunken log2 fold change at least 0.01. Class not met: shrunken log2 fold change below 0.01.

Worked set:
| inputSequence | targetDesc | assignedLabel |
| --- | --- | --- |
| RRIRKRPPRLPRPRPRPNDRPRP | Escherichia coli TOP10 | not met |
| RRIRVRPPRLPRPRPRPTLFPRP | Escherichia coli TOP10 | not met |

Q) Hi team, for `RRIRYRPPRLPRPRPRPQSNPRP` , is the recorded shrunken log2 fold change at or above 0.01?
A) not met

Q) Would you mind doing `RRIRVRPPRLPRPRPRPTFIPRP` as well?
A) not met

* * *

# Test system: Escherichia coli TOP10
# procedureSummary: shrunken log2 fold change of peptide-encoding DNA abundance (4.5 h post-induction vs induction); higher = less antimicrobial activity (less host growth inhibition)
# runParameters: time post-induction: 4.5 h; library: site-saturation at positions 5, 18, 19, 20
Class satisfied: shrunken log2 fold change at least -0.06. Class not satisfied: shrunken log2 fold change below -0.06.

| inputSequence | assignedLabel |
| --- | --- |
| RRIRERPPRLPRPRPRPGEPPRP | not satisfied |
| RRIRPRPPRLPRPRPRPLCCPRP | not satisfied |
| RRIRARPPRLPRPRPRPISCPRP | satisfied |
| RRIRYRPPRLPRPRPRPIWSPRP | not satisfied |
| RRIRFRPPRLPRPRPRPNAKPRP | satisfied |

Q) Hi team, for `RRIRDRPPRLPRPRPRPMPHPRP` , is the recorded shrunken log2 fold change at or above -0.06?
A) satisfied

Q) Would you mind doing `RRIRERPPRLPRPRPRPCKRPRP` as well?
A) not satisfied

Q) Would you mind doing `RRIRYRPPRLPRPRPRPFHKPRP` as well?
A) not satisfied

Q) Would you mind doing `RRIRMRPPRLPRPRPRPLTIPRP` as well?
A) satisfied

* * *

What shrunken log2 fold change was measured for each of the following?
# Test system: Escherichia coli TOP10
# procedureSummary: shrunken log2 fold change of peptide-encoding DNA abundance (4.5 h post-induction vs induction); higher = less antimicrobial activity (less host growth inhibition)
# runParameters: time post-induction: 4.5 h; library: site-saturation at positions 5, 18, 19, 20
Answers are plain numbers.

Recorded results for 4 sequences are shown here.
| inputSequence | shrunken log2 fold change |
| --- | --- |
| RRIRRRPPRLPRPRPRPRHCPRP | 0.119 |
| RRIRNRPPRLPRPRPRPNSAPRP | 0.026 |
| RRIRSRPPRLPRPRPRPSWVPRP | 0.0183 |
| RRIRCRPPRLPRPRPRPITTPRP | -0.197 |

// input: 7 sequences below; output: shrunken log2 fold change for each
1. RRIRIRPPRLPRPRPRPKQTPRP
2. RRIRGRPPRLPRPRPRPGEWPRP
3. RRIRWRPPRLPRPRPRPSSGPRP
4. RRIRVRPPRLPRPRPRPCPHPRP
5. RRIRYRPPRLPRPRPRPPWYPRP
6. RRIRLRPPRLPRPRPRPCFKPRP
7. RRIRERPPRLPRPRPRPHCMPRP

A)
1: -0.0291; 2: -0.0156; 3: -0.00985; 4: -0.0391; 5: -0.786; 6: -0.315; 7: -0.235

* * *

# System: Escherichia coli TOP10
# procedureSummary: shrunken log2 fold change of peptide-encoding DNA abundance (4.5 h post-induction vs induction); higher = less antimicrobial activity (less host growth inhibition)
# runParameters: time post-induction: 4.5 h; library: site-saturation at positions 5, 18, 19, 20
What shrunken log2 fold change was measured for each of the following?
Numbers only.

Recorded results for 3 sequences are shown here.
| inputSequence | targetDesc | shrunken log2 fold change |
| --- | --- | --- |
| RRIRTRPPRLPRPRPRPKGVPRP | Escherichia coli TOP10 | 0.253 |
| RRIRFRPPRLPRPRPRPYSTPRP | Escherichia coli TOP10 | 0.0586 |
| RRIRNRPPRLPRPRPRPHKSPRP | Escherichia coli TOP10 | -0.298 |

// input: 6 sequences below; output: shrunken log2 fold change for each
1. RRIRPRPPRLPRPRPRPLYCPRP
2. RRIRCRPPRLPRPRPRPPEVPRP
3. RRIRIRPPRLPRPRPRPMAAPRP
4. RRIRPRPPRLPRPRPRPKGEPRP
5. RRIRKRPPRLPRPRPRPIFFPRP
6. RRIRARPPRLPRPRPRPPPWPRP

A)
[-0.548, 0.124, 0.403, 0.125, 0.414, 1.03]

// input: 7 sequences below; output: shrunken log2 fold change for each
1. RRIRKRPPRLPRPRPRPEWAPRP
2. RRIRTRPPRLPRPRPRPTQSPRP
3. RRIRCRPPRLPRPRPRPSHHPRP
4. RRIRQRPPRLPRPRPRPTPGPRP
5. RRIRLRPPRLPRPRPRPCHYPRP
6. RRIRFRPPRLPRPRPRPQRWPRP
7. RRIRKRPPRLPRPRPRPYQTPRP

A)
1. 0.604
2. 0.311
3. -0.603
4. 0.417
5. -0.0212
6. 0.427
7. 0.0193

Q) Entry `RRIRSRPPRLPRPRPRPSNAPRP` , system Escherichia coli TOP10: what shrunken log2 fold change was measured?
A) -0.276

* * *

# Tested on: Escherichia coli TOP10
# procedureSummary: shrunken log2 fold change of peptide-encoding DNA abundance (4.5 h post-induction vs induction); higher = less antimicrobial activity (less host growth inhibition)
# runParameters: time post-induction: 4.5 h; library: site-saturation at positions 5, 18, 19, 20
Class class 1: shrunken log2 fold change at least 0.03. Class class 0: shrunken log2 fold change below 0.03.

Worked set:
| inputSequence | assignedLabel |
| --- | --- |
| RRIRKRPPRLPRPRPRPITWPRP | class 1 |
| RRIRQRPPRLPRPRPRPGIFPRP | class 1 |
| RRIRRRPPRLPRPRPRPNCHPRP | class 0 |
| RRIRARPPRLPRPRPRPPPHPRP | class 1 |
| RRIRTRPPRLPRPRPRPLFSPRP | class 0 |
| RRIRARPPRLPRPRPRPVEGPRP | class 1 |

Q) Hi team, for `RRIRYRPPRLPRPRPRPYDYPRP` , is the recorded shrunken log2 fold change at or above 0.03?
A) class 0

Q) Would you mind doing `RRIRQRPPRLPRPRPRPGSGPRP` as well?
A) class 1

Q) Would you mind doing `RRIRKRPPRLPRPRPRPDYFPRP` as well?
A) class 1

Q) Would you mind doing `RRIRNRPPRLPRPRPRPYKPPRP` as well?
A) class 0

* * *

# System: Escherichia coli TOP10;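 note: peptides expressed intracellularly from a pBAD plasmid library in pooled LB shake-flask culture, induced with 0.3% L-arabinose, DNA abundance read by NGS, three biological replicates, DESeq2 with apeglm shrinkage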
# procedureSummary: shrunken log2 fold change of peptide-encoding DNA abundance (4.5 h post-induction vs induction); higher = less antimicrobial activity (less host growth inhibition)
# runParameters: time post-induction: 4.5 h; library: site-saturation at positions 5, 18, 19, 20
Class true: shrunken log2 fold change at least 0.1. Class false: shrunken log2 fold change below 0.1.

Q) Hi team, for `RRIRNRPPRLPRPRPRPCLAPRP` , is the recorded shrunken log2 fold change at or above 0.1?
A) false

Q) Would you mind doing `RRIRDRPPRLPRPRPRPGSKPRP` as well?
A) false

Q) Would you mind doing `RRIRPRPPRLPRPRPRPVPNPRP` as well?
A) true

Q) Would you mind doing `RRIRARPPRLPRPRPRPADYPRP` as well?
A) true

Q) Would you mind doing `RRIRVRPPRLPRPRPRPGGWPRP` as well?
A) true
